# Test system: H460 (lung carcinoma)
# test-method-notes: Antiproliferative activity in vitro, MTT assay, 72 h
# Type: cell-based
# assay-setup: Homo sapiens, NCI-H460, 72 h incubation
assay-metric: IC50

Guide cases for IC50, answers given:
molecule	measurement
O=C(Nc1nc2ccccc2[nH]1)c1ccc(O)cc1O	> 100 µM
O=C(Nc1nc2ccccc2[nH]1)c1cc(O)c(O)c(O)c1	> 100 µM
COc1ccc(C(=O)Nc2nc3cc(C#N)ccc3n2CC(C)C)c(O)c1	4.4 µM
CC(C)Cn1c(NC(=O)c2cc(O)c(O)c(O)c2)nc2ccccc21	> 100 µM
COc1ccc(C(=O)Nc2nc3cc(C#N)ccc3n2C)c(O)c1	> 100 µM
COc1cc([C@@H]2c3cc4c(cc3[C@@H](O[C@@H]3O[C@@H]5CO[C@@H](C)O[C@H]5[C@H](O)[C@H]3O)[C@H]3COC(=O)[C@H]23)OCO4)cc(OC)c1O [Etoposide, etoposide, reference compound]	2.2 µM

Request: Quick one: IC50 for `Cn1c(NC(=O)c2ccc(O)cc2O)nc2cc(C#N)ccc21` ?
Response: > 100 µM
